target: T1, Anti-CD28 Fab (SEQ ID NOs: 202, 203); experiment: phage ELISA on captured biotinylated Fab;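 further: wells preblocked with or without CD28 antigen, then clonal phage supernatant added briefly, washed, and bound phage read out by ELISA using HRP-linked anti-M13 antibody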
T1 construct: biotinylated and captured on neutravidin coated plates in the phage ELISA
T1 sequence (VH, as listed by the source, chain 1 of 2): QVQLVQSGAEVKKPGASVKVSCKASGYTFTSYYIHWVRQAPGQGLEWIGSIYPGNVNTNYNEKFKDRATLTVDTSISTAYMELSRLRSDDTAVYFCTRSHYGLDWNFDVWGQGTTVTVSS
T1 sequence (VL, as listed by the source, chain 2 of 2): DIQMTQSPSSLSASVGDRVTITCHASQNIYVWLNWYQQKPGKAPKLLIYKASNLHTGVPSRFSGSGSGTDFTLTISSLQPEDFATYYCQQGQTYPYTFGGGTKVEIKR
Property measured: Anti-CD28 Fab signal

INSERT INTO measurements (binder, property_measured, measured) VALUES
  ('YCEGHLPMYFLKCM [Phage-270]', 'Anti-CD28 Fab signal', 1.97),
  ('YCQGHMPEYMDKCL [Phage-231]', 'Anti-CD28 Fab signal', 2.05),
  ('YCDGHVAEYRDKCL [Phage-173]', 'Anti-CD28 Fab signal', 2.17),
  ('YCDGHSPDYIWKCL [Phage-289]', 'Anti-CD28 Fab signal', 1.93),
  ('YCDGHLPQYMSKCL [Phage-262]', 'Anti-CD28 Fab signal', 2),
  ('YCEGHAAEYMMKCL [Phage-263]', 'Anti-CD28 Fab signal', 1.99);

Source: patent US20260274955A1
